# Tested on: Phakopsora pachyrhizi (F129L)
# Assay Method Text: Protective control of soybean rust on soybeans (PHAKPA P6)
# Assay type: in vivo
# Run Conditions: protective P6, 4 ppm, soybean rust F129L
Respond with T for % PHAKPA (F129L) Disease level P6 at 4 ppm values of 80% and above, F for values below.

| Smiles Str | Discrete Label |
| --- | --- |
| CNC(=O)/C(=N/OC)c1cccc(C)c1CO/N=C(\C)c1ccccc1Br | T |
| COC=C(C(=O)OC)c1cccc(C)c1CON=C(C)c1ccc(Cl)c(F)c1OC(F)(F)F | F |
| CCc1ccc(/C(C)=N/OCc2c(C)cccc2/C(=N\OC)C(=O)NC)cc1 | F |
| CO/N=C(/C(=O)OC)c1cccc(C)c1CO/N=C(\C)c1cc(C)ccc1C | T |
| CNC(=O)/C(=N/OC)c1cccc(C)c1CO/N=C(\C)c1ccccc1OC(F)(F)F | F |
| CNC(=O)/C(=N/OC)c1cccc(C)c1CO/N=C(\C)c1ccccc1-c1ccccc1 | T |
| C#Cc1cc(F)cc(/C(C)=N/OCc2c(C)cccc2/C(=N\OC)C(=O)NC)c1 | F |
| C#Cc1cc(F)c(F)c(/C(C)=N/OCc2c(C)cccc2/C(=N\OC)C(=O)OC)c1 | T |
| CNC(=O)/C(=N/OC)c1cccc(C)c1CO/N=C(\C(C)=O)c1cccc(C(F)(F)F)c1 | F |
| CCc1cccc(/C(=N\OC)C(=O)NC)c1CO/N=C(\C)c1cccc(C(F)(F)F)c1 | F |
| CO/N=C(/C(=O)OC)c1cccc(C)c1CO/N=C(\C)c1c(F)ccc(F)c1OC(F)(F)F | T |
| CO/N=C(/C)c1ccccc1/C(C)=N/OCc1c(C)cccc1/C(=N\OC)C(=O)OC | T |
| CNC(=O)/C(=N/OC)c1cccc(C)c1CO/N=C(\C)c1cc(C#N)cc(C(F)(F)F)c1 | T |
| CNC(=O)/C(=N/OC)c1cccc(C)c1CO/N=C(\C)c1cc(Cl)cc(Cl)c1F | F |
| CO/N=C(/C(=O)OC)c1cccc(C)c1CO/N=C(\C)c1c(F)ccc(C(F)(F)F)c1F | F |

----------
# Tested on: Phakopsora pachyrhizi (F129L)
# Assay Method Text: Protective control of soybean rust on soybeans (PHAKPA P2)
# Type: in vivo
# Run Conditions: P2 protective, 4 ppm, % diseased leaf area
Observation Type: PHAKPA (F129L) Disease level (%) P2 at 4 ppm

| Molecule | Units Of Measure | Val |
| --- | --- | --- |
| CNC(=O)/C(=N/OC)c1cccc(C)c1CO/N=C(/c1cccc(C)c1)C1CC1 [drawing 975, reference compound] | % | 67 |
| CNC(=O)/C(=N/OC)c1cccc(C)c1CO/N=C(\C)c1ccc(C)cc1 [Ex. 6] | % | 0 |
| CNC(=O)/C(=N/OC)c1cccc(C)c1CO/N=C(/c1ccccc1)C(F)F [Ex. 73] | % | 1 |
| CNC(=O)/C(=N/OC)c1cccc(C)c1CO/N=C(\C)c1cc(Cl)ccc1Cl [Ex. 130] | % | 33 |

----------
# Tested on: Phakopsora pachyrhizi (F129L)
# Assay Method Text: Protective control of soybean rust on soybeans (PHAKPA P2)
# Assay type: in vivo
# Run Conditions: protective P2, 16 ppm, soybean rust F129L
Observation Type: % PHAKPA (F129L) Disease level P2 at 16 ppm (%)

| Compound | Units Of Measure | Val |
| --- | --- | --- |
| C=Cc1cccc(/C(=N\OC)C(=O)NC)c1CO/N=C(\C)c1ccccc1 [compound 400] | % | 0 |
| CNC(=O)/C(=N/OC)c1cccc(C)c1CO/N=C(\C)c1ccc(-c2ccc(F)cc2)cc1C(F)(F)F [compound 426] | % | 1 |
| CNC(=O)/C(=N/OC)c1cccc(C)c1CO/N=C(\C)c1ccccc1C1CC1(F)F (stereo not shown) [compound 288] | % | 30 |
| CNC(=O)/C(=N/OC)c1cccc(C)c1CO/N=C(\C)c1cc(F)c(F)cc1CC(F)(F)F [compound 406] | % | 30 |
